Listed compounds paired with reported IC50
system-name: Programmed cell death protein 1/Programmed cell death 1 ligand 1 (Homo sapiens, UniProt Q15116+Q9NZQ7)
Sequence (Q15116 whole entry): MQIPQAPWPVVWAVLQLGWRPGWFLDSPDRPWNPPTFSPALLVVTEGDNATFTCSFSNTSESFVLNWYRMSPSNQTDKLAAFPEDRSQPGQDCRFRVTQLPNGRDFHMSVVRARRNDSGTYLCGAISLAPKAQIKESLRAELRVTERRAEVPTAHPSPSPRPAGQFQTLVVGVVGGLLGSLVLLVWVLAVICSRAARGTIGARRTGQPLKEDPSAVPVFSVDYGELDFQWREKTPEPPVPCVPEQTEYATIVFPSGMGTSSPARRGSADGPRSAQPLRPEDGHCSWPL
Sequence (Q9NZQ7 whole entry): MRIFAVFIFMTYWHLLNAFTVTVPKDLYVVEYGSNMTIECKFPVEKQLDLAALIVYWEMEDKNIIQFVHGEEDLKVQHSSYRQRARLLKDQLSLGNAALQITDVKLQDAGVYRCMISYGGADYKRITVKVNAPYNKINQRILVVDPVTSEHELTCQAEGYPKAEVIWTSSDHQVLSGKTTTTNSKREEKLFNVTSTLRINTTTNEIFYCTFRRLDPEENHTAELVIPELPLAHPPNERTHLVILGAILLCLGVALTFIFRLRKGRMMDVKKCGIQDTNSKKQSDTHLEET
protocol-description: Inhibition of PD-1/PDL1 protein-protein interaction (unknown origin) by HTRF assay
Format: protein-complex assay
metric-name: IC50 (nM)

{"compound": "OCCNCc1ccc2c(Nc3cccc(-c4ccc5c(c4)OCCO5)c3Cl)noc2c1", "observed-result": 756}
{"compound": "CC(=O)NCCNCc1ccc2c(Nc3cccc(-c4ccccc4)c3Cl)noc2c1", "observed-result": 2030}
{"compound": "O=C(O)C1CCCN1Cc1ccc2onc(Nc3cccc(-c4ccccc4)c3Cl)c2c1 (racemic)", "observed-result": 85.8}
{"compound": "O=C(O)C1CCCN(Cc2ccc3onc(Nc4cccc(-c5ccccc5)c4Cl)c3c2)C1 (racemic)", "observed-result": 92.8}
{"compound": "O=C(O)C1CCN1Cc1ccc2onc(Nc3cccc(-c4ccccc4)c3Cl)c2c1 (racemic)", "observed-result": 480}
